target: Dopamine transporter (Homo sapiens, UniProt Q01959); assay: Dopamine transporter uptake (h); assay type: cell-based; details: Function DAT Estimated IC50, blocking reuptake of DA
Sequence (Q01959 whole entry): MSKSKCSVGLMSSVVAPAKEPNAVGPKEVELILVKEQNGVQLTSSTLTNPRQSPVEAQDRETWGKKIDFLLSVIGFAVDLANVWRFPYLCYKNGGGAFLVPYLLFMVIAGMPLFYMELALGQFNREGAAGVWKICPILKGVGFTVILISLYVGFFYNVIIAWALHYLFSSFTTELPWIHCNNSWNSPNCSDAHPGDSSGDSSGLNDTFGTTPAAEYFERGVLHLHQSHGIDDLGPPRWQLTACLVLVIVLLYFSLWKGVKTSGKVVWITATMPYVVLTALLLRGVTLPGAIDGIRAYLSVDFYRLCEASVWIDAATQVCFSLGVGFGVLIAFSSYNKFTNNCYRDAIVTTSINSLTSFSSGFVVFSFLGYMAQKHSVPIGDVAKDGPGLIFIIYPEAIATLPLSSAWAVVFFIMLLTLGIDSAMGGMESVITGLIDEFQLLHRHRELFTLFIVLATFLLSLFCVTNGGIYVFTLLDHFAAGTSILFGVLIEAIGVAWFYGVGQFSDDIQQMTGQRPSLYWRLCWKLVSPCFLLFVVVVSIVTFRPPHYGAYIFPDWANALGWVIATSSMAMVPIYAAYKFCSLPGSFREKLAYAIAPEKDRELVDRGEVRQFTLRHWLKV
pIC50: −log10 of the molar value.
Readout Name: pIC50

Q) Field request: pIC50 | item: NCCc1ccc2c(c1)OCS2
A) ~5.00

###

target: 5-HT2A receptor (Homo sapiens); construct: host or cells: HEK293 (ATCC CRL-1573), transient, membranes; test: 5-HT2A radioligand ([3H]LSD) competition binding; conditions: read-out: 5HT2A Ki at the low-affinity inactive state; [3H]LSD; two-site fit
Sequence (P28223 whole entry): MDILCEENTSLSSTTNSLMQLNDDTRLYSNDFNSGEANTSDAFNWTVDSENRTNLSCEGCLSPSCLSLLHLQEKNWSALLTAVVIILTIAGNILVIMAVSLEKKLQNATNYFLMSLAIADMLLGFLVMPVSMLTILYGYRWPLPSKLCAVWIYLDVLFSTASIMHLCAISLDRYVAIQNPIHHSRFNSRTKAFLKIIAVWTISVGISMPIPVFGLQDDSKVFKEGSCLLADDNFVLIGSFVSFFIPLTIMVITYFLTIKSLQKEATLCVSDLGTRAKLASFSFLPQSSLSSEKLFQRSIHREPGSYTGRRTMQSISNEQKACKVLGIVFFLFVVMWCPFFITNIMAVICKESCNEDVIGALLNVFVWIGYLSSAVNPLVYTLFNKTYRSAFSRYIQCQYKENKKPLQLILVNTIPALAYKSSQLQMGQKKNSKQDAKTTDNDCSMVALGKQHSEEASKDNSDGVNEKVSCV
Readout Name: pKi
By convention, pKi is the negative base-10 log of a molar concentration.

Q) Find the recorded pKi belonging to COc1cc(CCN)cc(OC)c1SC(F)(F)F and report it.
A) 6.17

###

biological target: Dopamine transporter (Homo sapiens); experiment: Dopamine transporter uptake (h); format: cell-based; details: blocking reuptake of DA; read-out: Function DAT Estimated IC50
Readout Name: IC50

Q) Checklist item: IC50 tested on Dopamine transporter (Homo sapiens), entry CC(N)Cc1ccc2c(c1)OCS2 (racemic) [II-16 (racemic)] , value?
A) ~1000 nM

###

target: 5-HT2A (h) (Homo sapiens); construct: expressed in transfected cells; host or cells: HEK-293 cells; assay: 5-HT2A (h) agonist effect, IP1 HTRF functional assay; assay type: cell-based; conditions: IP-1; estimated from four concentrations; read-out: Function 5-HT2A Estimated EC50
Readout Name: EC50 (µM)
API: value field is a number in µM; no unit string.

Q) For the compound CC(N)Cc1ccc2c(c1)OCS2 (racemic) [II-16 (racemic)] , what EC50 is on record?
A) 2.5

###

Target: 5-HT2C (h) (Homo sapiens)
Construct: expressed in transfected cells; host or cells: HEK-293 cells
Sequence (P28335 33-458): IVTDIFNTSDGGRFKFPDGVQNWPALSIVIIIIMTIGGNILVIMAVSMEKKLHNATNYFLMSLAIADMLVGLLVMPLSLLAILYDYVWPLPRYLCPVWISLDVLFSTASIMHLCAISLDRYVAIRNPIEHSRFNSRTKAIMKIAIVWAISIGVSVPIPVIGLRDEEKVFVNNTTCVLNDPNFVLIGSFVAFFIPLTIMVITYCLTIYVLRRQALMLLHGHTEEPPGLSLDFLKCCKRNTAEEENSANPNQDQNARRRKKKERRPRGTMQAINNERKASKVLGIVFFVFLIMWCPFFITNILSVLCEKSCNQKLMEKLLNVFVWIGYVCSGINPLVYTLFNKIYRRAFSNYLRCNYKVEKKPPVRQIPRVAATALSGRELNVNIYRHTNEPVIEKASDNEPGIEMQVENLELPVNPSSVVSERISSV
Experiment: 5-HT2C (h) agonist radioligand [125I](±)DOI binding
Details: agonist radioligand [125I](±)DOI; reference compound result
Readout Name: IC50 (nM)
Give the value in nM but do not write nM after it.

Q) Value lookup for IC50; key = COc1cc(CC(C)N)c(OC)cc1I (racemic) [(±)DOI]
A) 0.37

###

biological target: MAO-B (Homo sapiens); construct: purchased Corning 456284; experiment: human MAO-B in vitro metabolism; type: in vitro ADME; conditions: human MAO-B enzyme (Corning), test compound 1 μM, read-out: MAO-B t1/2
Sequence (P27338 whole entry): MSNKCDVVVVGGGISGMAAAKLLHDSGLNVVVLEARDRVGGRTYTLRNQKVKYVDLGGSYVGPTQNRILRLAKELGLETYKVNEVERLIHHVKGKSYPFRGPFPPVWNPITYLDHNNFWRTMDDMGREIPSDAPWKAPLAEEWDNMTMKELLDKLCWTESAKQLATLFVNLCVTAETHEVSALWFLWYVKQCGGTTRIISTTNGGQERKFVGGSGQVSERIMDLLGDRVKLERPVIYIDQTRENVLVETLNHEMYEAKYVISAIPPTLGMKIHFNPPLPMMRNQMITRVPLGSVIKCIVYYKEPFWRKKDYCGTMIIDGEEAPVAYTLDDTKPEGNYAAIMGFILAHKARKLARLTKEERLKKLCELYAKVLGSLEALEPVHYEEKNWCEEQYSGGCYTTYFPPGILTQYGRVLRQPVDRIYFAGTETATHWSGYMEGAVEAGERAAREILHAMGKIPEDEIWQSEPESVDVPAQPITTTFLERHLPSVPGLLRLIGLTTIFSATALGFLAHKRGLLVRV
Readout Name: half-life at 1 µM (min)
Give just the number in min; leave the unit off.

Take a look at these entries with their results.
>>> numeric_readout("[2H]C1([2H])Oc2cc(CC(C)N)ccc2S1 (stereo not drawn) [II-17]")
892
>>> numeric_readout("CC(N)Cc1ccc2c(c1)OCS2 (stereo not drawn) [II-16]")
857

Next, consider the following compound.
Q) Recorded half-life at 1 µM for NCCc1ccc2c(c1)OCO2 [Reference Compound 5, 3,4-Methylenedioxyphenethylamine, reference compound] , please?
A) 7.91
